# measurement.target: Aβ1-42 peptide (Homo sapiens, UniProt P05067)
# Sequence (P05067 672-713): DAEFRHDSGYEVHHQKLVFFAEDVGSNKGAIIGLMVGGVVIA
# protocol: Thioflavin T (Thio T)-assay of Aβ aggregation
# Format: biochemical
readout.name: IC50 (µM)
Just the number please, in µM, no unit attached.

(Q) Can you share its IC50? I mean this molecule: CN(C)c1ccc(N=Nc2ccc(N=C=S)cc2)cc1
(A) 0.4

(Q) Can you share its IC50? I mean this molecule: c1ccc(N=Nc2ccccc2)cc1 [compound 33, 1,2-diphenyldiazene, reference compound]
(A) 1090

(Q) Can you share its IC50? I mean this molecule: CN(C)c1ccc(N=Nc2ccccc2)cc1
(A) 16.8

(Q) Can you share its IC50? I mean this molecule: CN(C)c1ccc(N=Nc2ccc(N)cc2)cc1
(A) 2.1

###

Exercise: state measured IC50 for each of the compounds provided.
# measurement.target: Aβ1-42 peptide (Homo sapiens)
# protocol: Thioflavin T (Thio T)-assay of Aβ aggregation
# Format: biochemical
# test.context: 30 μM Aβ1-42 peptide, 48 h at 37° C., vs DMSO control; read-out: ThioT: IC50
Just the number please, in nM, no unit attached.

(Q) Request - read-out IC50 | tested on Aβ1-42 peptide (Homo sapiens) | compound Oc1ccc(N=Nc2ccccc2)cc1 [Compound 4, 4-(phenyldiazenyl)phenol]
(A) 13200

(Q) Request - read-out IC50 | tested on Aβ1-42 peptide (Homo sapiens) | compound O=[N+]([O-])c1ccc(N=Nc2ccc(O)cc2O)cc1 [Compound 13]
(A) 1100

(Q) Request - read-out IC50 | tested on Aβ1-42 peptide (Homo sapiens) | compound Cc1cccc(N=Nc2cc(C=O)c(O)cc2O)c1 [Compound 16]
(A) 3300

(Q) Request - read-out IC50 | tested on Aβ1-42 peptide (Homo sapiens) | compound Cc1cc(N=Nc2nccs2)c(O)cc1O [Compound 18]
(A) 2400

(Q) Request - read-out IC50 | tested on Aβ1-42 peptide (Homo sapiens) | compound O=[N+]([O-])c1ccc(N=NNc2ccc(N=Nc3ccccc3)cc2)cc1 [Compound 23]
(A) 1100

###

# measurement.target: Aβ1-42 peptide (Homo sapiens)
# protocol: Thioflavin T (Thio T)-assay of Aβ aggregation
# Format: biochemical
# test.context: 30 μM Aβ1-42 peptide, 48 h at 37° C., vs DMSO control; read-out: ThioT: IC50
readout.name: IC50 (µM)
Just the number please, in µM, no unit attached.

(Q) Can you share its IC50? I mean this compound: COc1ccc(N=Nc2nccs2)c(O)c1 [Compound 30, 5-methoxy-2-(thiazol-2-yldiazenyl)phenol]
(A) 27.4

(Q) Can you share its IC50? I mean this compound: O=S(=O)(O)c1ccc(O)c(N=Nc2ccc(O)cc2O)c1 [Compound 29]
(A) 19.8

(Q) Can you share its IC50? I mean this compound: O=S(=O)(O)c1cccc(N=Nc2ccc(Nc3ccccc3)cc2)c1 [Compound 11]
(A) 9.5

(Q) Can you share its IC50? I mean this compound: O=S(=O)(O)c1ccc(N=Nc2ccc(O)cc2O)cc1 [Compound 27]
(A) 61.5

(Q) Can you share its IC50? I mean this compound: O=[N+]([O-])c1ccc(N=Nc2c(O)ccc3ccccc23)cc1 [Compound 31]
(A) 87.1

(Q) Can you share its IC50? I mean this compound: Oc1ccc(N=Nc2ncn[nH]2)c(O)c1 [Compound 17]
(A) 8

(Q) Can you share its IC50? I mean this compound: Oc1ccc(N=Nc2nccs2)c(O)c1 [Compound 14, 4-(thiazol-2-yldiazenyl)benzene-1,3-diol]
(A) 4.8

(Q) Can you share its IC50? I mean this compound: Cc1cc(O)cc(O)c1N=Nc1ccc([N+](=O)[O-])cc1 [Compound 19]
(A) 0.9

(Q) Can you share its IC50? I mean this compound: CCOc1ccc(N=Nc2ccc(C)cc2)cc1C [compound 34, reference compound]
(A) 105
